test system: MG-63 (Osteosarcoma); assay: Bliss excess, mean over the matrix (fraction); higher = more synergy;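 note: after 72 h of two-drug dosing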
observed property: Bliss excess
# answer = number (no unit)

compound | observed property | reported result
C=CCn1c(=O)c2cnc(Nc3ccc(N4CCN(C)CC4)cc3)nc2n1-c1cccc(C(C)(C)O)n1 [AZD1775] + C1CN(CCC1(C(=O)N[C@@H](CCO)C2=CC=C(C=C2)Cl)N)C3=NC=NC4=C3C=CN4 [Capivasertib] (first compound max 3 µM, partner max 3 µM) | Bliss excess | -0.0484

// CC1(C)CCC(CN2CCN(c3ccc(C(=O)NS(=O)(=O)c4ccc(NCC5CCOCC5)c([N+](=O)[O-])c4)c(Oc4cnc5[nH]ccc5c4)c3)CC2)=C(c2ccc(Cl)cc2)C1 [Venetoclax] + C=CCn1c(=O)c2cnc(Nc3ccc(N4CCN(C)CC4)cc3)nc2n1-c1cccc(C(C)(C)O)n1 [AZD1775] (first compound max 1 µM, partner max 1 µM) : Bliss excess value = -0.0048

Bliss excess reading for COc1nnc2ccc(N3CCC(c4ccc(OCCN5CCN(C)C(=O)[C@H]5C)cc4)CC3)nn12 [AZD5153] + C=CCn1c(=O)c2cnc(Nc3ccc(N4CCN(C)CC4)cc3)nc2n1-c1cccc(C(C)(C)O)n1 [AZD1775] (first compound max 1 µM, partner max 1 µM) : -0.0419
